# Test Details: Ratio of drug level in brain to plasma in rat
# Assay type: ADME
# Experimental Context: brain and plasma, read-out: BPR
Measured Quantity: Kp
One number for each entry.

# Compound String, Quantitative Readout
records = [
    ("CN1CCC[C@@H]1Cc1cn(S(=O)(=O)c2ccccc2)c2ccc(Cl)cc12", 23),
]

// `CN1CC=C(c2cn(S(=O)(=O)c3cccc4ccccc34)c3ccc(F)cc23)CC1` : Kp value = 43

---

# System Name: 5-hydroxytryptamine receptor 6 (Homo sapiens)
# Sequence (P50406 whole entry): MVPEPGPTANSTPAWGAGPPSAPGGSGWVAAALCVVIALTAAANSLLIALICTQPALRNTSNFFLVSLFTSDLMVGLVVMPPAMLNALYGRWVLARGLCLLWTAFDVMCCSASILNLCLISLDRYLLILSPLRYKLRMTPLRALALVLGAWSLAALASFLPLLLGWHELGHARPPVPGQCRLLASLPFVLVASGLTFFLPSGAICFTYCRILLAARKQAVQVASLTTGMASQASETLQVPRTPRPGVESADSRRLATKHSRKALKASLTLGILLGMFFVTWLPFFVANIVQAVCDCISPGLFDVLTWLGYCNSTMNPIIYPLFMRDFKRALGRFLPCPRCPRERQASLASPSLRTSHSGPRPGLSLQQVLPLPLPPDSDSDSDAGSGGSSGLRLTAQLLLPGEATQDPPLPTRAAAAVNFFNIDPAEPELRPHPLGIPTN
# Test Details: Antagonist activity at human recombinant 5HT6 receptor expressed in CHO cells
# Assay type: cell-based
Measured Quantity: Ki
Don't forget the unit after the value.

Consider the following illustrative entries.
# Molecule, Ki
rows = [
    ("Cc1c(S(=O)(=O)Nc2cc3c(c(N4CCN(C)CC4)c2)OCC3)sc2ccc(Cl)cc12", "1.6 nM"),
    ("O=S(=O)(c1ccccc1)c1ccc(C2CCNCC2)c2ccccc12", "3.8 nM"),
    ("CN1CC=C(c2cn(S(=O)(=O)c3cccc4ccccc34)c3ccc(F)cc23)CC1", "1 nM"),
    ("Fc1ccc2c(c1)c(C1=CCNCC1)cn2Cc1ccccc1", "10 nM"),
]

Each molecule below has a reported value. Please supply its Ki.
1. O=C1c2cccc(N3CCNCC3)c2Oc2ccc(F)cc2N1Cc1cccc(C(F)(F)F)c1
2. Cc1cc(C)cc(S(=O)(=O)c2ccc3ccnc(N4CCNCC4)c3c2)c1
3. COc1cc(Cn2c(=O)ccc3cccc(OC)c32)cc(N2CCNCC2)c1

[A]
0.3 nM
11 nM
0.9 nM

Field: Ki. Fill in for each record below.
1. O=C1COc2c(N3CCNCC3)cccc2N1Cc1ccccc1
2. CN1CCC(c2cn(C)c3cc(OS(=O)(=O)c4c(F)cccc4F)ccc23)CC1

[A]
1. 0.2 nM
2. 1 nM

The recorded Ki for entry O=S(=O)(c1ccccc1)c1ccc2c(c1)OCCC2N1CCNCC1 (stereo not given) equals 0.4 nM
